Molecular target: M-phase inducer phosphatase 2 (Homo sapiens)
MEASURE NAME: IC50

[ask] Any idea what its IC50 is? The molecule is Cc1cccc(NC(=O)c2cc(NC(=O)C3CCCCC3C(=O)O)ccc2N2CCCCC2)c1 (stereo unspecified)
[reply] > 50 µM

[ask] For Cn1ncnc2c(=O)n(C)c(=O)nc1-2 then?
[reply] 0.396 µM

[ask] For Cc1cccc(N2CCN(C(=O)Cc3c(C(=O)O)[nH]c4ccc(Cl)cc34)CC2)c1C then?
[reply] > 50 µM

[ask] For O=C(OC1CCCCC1)c1ccc2c(c1)C1C=CCC1C(C(=O)O)N2 (stereo unspecified) [SMR000019385] then?
[reply] 9.6 µM

[ask] For Cc1ccc2c(c1C)NC(C(=O)O)C1CC=CC21 (stereo unspecified) then?
[reply] 15.9 µM

[ask] For CC(C)Cn1c(N)c(C(=O)COC(=O)c2cc(-c3ccco3)nc3ccccc23)c(=O)n(C)c1=O then?
[reply] 46.6 µM

[ask] For Cc1ccc(C)n1-c1cccc(C(=O)O)c1 then?
[reply] > 50 µM

[ask] For CCn1nc(-c2ccccc2)nc2c(=O)n(C)c(=O)nc1-2 then?
[reply] 0.447 µM

[ask] For O=C1C=Cc2ccccc2C1=O [1,2-dihydronaphthalene-1,2-dione] then?
[reply] 19 µM

[ask] For COCCCn1c(N)c(C(=O)NCCC(C)C)c2nc3ccccc3nc21 [MLS000041744] then?
[reply] > 50 µM

[ask] For N#Cc1c(N)sc(=S)c2c1CCN(Cc1ccccc1)C2 then?
[reply] 4.99 µM

====

Target: M-phase inducer phosphatase 2 (Homo sapiens, UniProt P30305)
Sequence (P30305 whole entry): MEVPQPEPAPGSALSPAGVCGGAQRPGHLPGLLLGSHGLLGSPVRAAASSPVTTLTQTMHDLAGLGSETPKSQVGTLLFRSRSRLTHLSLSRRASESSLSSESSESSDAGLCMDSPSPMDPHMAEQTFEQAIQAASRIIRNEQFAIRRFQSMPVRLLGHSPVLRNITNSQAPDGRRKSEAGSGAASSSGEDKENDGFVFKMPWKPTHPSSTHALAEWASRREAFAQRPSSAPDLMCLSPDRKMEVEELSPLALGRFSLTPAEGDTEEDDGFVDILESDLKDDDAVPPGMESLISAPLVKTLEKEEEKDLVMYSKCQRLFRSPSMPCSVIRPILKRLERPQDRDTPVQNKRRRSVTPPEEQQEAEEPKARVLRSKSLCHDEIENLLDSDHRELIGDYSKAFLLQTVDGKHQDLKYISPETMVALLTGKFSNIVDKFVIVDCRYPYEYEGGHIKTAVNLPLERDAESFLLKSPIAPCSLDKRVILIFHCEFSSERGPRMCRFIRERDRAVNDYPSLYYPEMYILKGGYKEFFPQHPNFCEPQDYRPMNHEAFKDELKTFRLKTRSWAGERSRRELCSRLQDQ
Please provide measured pIC50 for the entries that follow.
Field pIC50 (float): negative decimal logarithm of the concentration in molar.

[ask] Please provide the recorded pIC50 for N#Cc1c(N2CCCC2)nc(N)c2c(N)nc(N3CCCC3)cc12 , tested on M-phase inducer phosphatase 2 (Homo sapiens, UniProt P30305).
[reply] 4.67

[ask] For CCOC(=O)c1ccc2c(c1)C1C=CCC1C(C(=O)O)N2 (centres undefined) then?
[reply] 4.74

[ask] For CCn1nc(-c2cccs2)nc2c(=O)n(C)c(=O)nc1-2 then?
[reply] 6.26

[ask] For O=C(Nc1ccccc1)c1ccc2nc(-c3ccco3)c(-c3ccco3)nc2c1 then?
[reply] 4.45

[ask] For COc1ccc(Br)cc1C=c1sc2nc(-c3ccco3)nn2c1=O then?
[reply] 4.83

[ask] For Cc1c(N=c2c(=O)c3ccccc3c2=O)c(=O)n(-c2ccccc2)n1C then?
[reply] 4.86

====

IC50, M-phase inducer phosphatase 2 (Homo sapiens), per-entry values.

[ask] Please provide the recorded IC50 for Cc1cc(C)n2c(SCC(=O)N3CCN(S(=O)(=O)c4ccc(Cl)cc4)CC3)nnc2n1 , tested on M-phase inducer phosphatase 2 (Homo sapiens).
[reply] > 50 µM

[ask] For COc1ccc2noc3c2c1C(=O)c1ccccc1-3 [MLS000106874] then?
[reply] > 50 µM

[ask] For CC1=C(/C=C/C(C)=C/C=C/C(C)=C/C(=O)O)C(C)(C)CCC1 [ALL-TRANS-RETINOIC ACID] then?
[reply] > 50 µM

meta.source: BindingDB's records for doi:10.7270/Q2125R2H
